System: Candida albicans ATCC90028
Test: Radial diffusion assay (RDA), C. albicans
Type: cell-based
Design: unit not given here
Conditions: Table 1c; peptide 1 μM
Experimental: Peptides. Peptides were from Sigma-Genosys, generated by a peptide synthesis platform (PEPscreen®, Custom Peptide Libraries, SigmaGenosys). Yield was ˜1-6 mg, and peptide length 20 amino acids. MALDI-ToF Mass Spectrometry was perfomed on these peptides. Average Crude Purity of 20mers was ˜60%. Peptides were supplied lyophilized and in a 96-well tube rack. Prior to biological testing the PEPscreen peptides were diluted in dH2O (5 mM stock), and stored at −20 C. […]
readoutName: RDA Mean, C. albicans
One number for each entry.

# substance, RDA Mean, C. albicans
data = [
    ("PKR-21: growth factor derived peptide, untagged parent of PKR21WWW; sequence not printed (PKRKKKGGKNGKNRRNRKKKN; listed as Homo sapiens)", 0.00),
    ("GKRKKKGKGLGKKRDPCLRKYKWWW [GKR-22-WWW]", 0.00),
    ("PKRKKKGGKNGKNRRNRKKKNWWW [PKR-21-WWW]", 0.49),
]

Please turn your attention to the following entry.
The substance listed as GKR-22: growth factor derived peptide, untagged parent of GKR22WWW; sequence not printed (GKRKKKGKGLGKKRDPCLRKYK; listed as Homo sapiens) has a reported RDA Mean, C. albicans of 0.00

The values you see were collected from patent US8227406B2.
